- Test system: Thoracic aorta
- Test Summary: Vasorelaxant activity in rat thoracic aorta
- Type: functional, tissue-based
Value Kind: IC50

- Compound: "COC(=O)CC1CC2c3[nH]c4ccccc4c3CCN2CC1CCO (racemic)"
  Study Target: "Thoracic aorta"
  Reading: "5.89 µM"
- Compound: "CC[C@H]1CN2CC[C@]3(C(=O)Nc4ccccc43)[C@@H]2C[C@@H]1/C(=C/OC)C(=O)OC"
  Study Target: "Thoracic aorta"
  Reading: "174 µM"
- Compound: "COC(=O)C[C@@H]1C[C@H]2c3[nH]c4ccccc4c3CCN2C[C@@H]1CCO"
  Study Target: "Thoracic aorta"
  Reading: "3.69 µM"
- Compound: "COC(=O)C[C@H]1C[C@@H]2c3[nH]c4ccccc4c3CCN2C[C@H]1CCO"
  Study Target: "Thoracic aorta"
  Reading: "0.199 µM"
